Provenance of the data: patent US4587342A

# ASSAY NAME: Acute toxicity in mouse
# CONDITIONS: in vivo, ip; i.p. mouse
molecules and their reported LD50
Field: numeric (mg/kg). Do not append units.

{"STRUCTURE AS SMILES": "COc1cc(Cc2cnc(N)nc2N)c2c(c1OC)OCC=C2", "MEASUREMENT UNIT": "mg/kg", "LD50": 610}

For reference, reported LD50 for `COc1cc(Cc2cnc(N)nc2N)c2cccnc2c1N.Cl.Cl` stands at 500

###

# Tested on: Staph. aureus
# ASSAY NAME: MIC vs Staph. aureus (Table 2)
# Assay type: cell-based
# CONDITIONS: Staphylococcus aureus, strain not given
# Excerpt: The compounds of the present invention were subjected to standard tests in order to determine the minimum inhibitory concentration in μg/ml needed to inhibit a range of bacterial microorganisms in-vitro.
Threshold check on MIC: strictly below 0.5 µg/mL is rule met; on or above 0.5 µg/mL is rule not met.

Some entries whose results are on file:
{"COMPOUND": "COc1cc(Cc2cnc(N)nc2N)c2c(c1OC)OC=CC2", "CLASS ASSIGNMENT": "rule met"}
{"COMPOUND": "Cl.Cl.Nc1ncc(Cc2cc(Cl)c(N)c3ncccc23)c(N)n1", "CLASS ASSIGNMENT": "rule met"}
{"COMPOUND": "C=CCc1cc(Cc2cnc(N)nc2N)c2ccc(C)nc2c1O", "CLASS ASSIGNMENT": "rule met"}
{"COMPOUND": "CCOc1cc(Cc2cnc(N)nc2N)c2cccnc2c1N", "CLASS ASSIGNMENT": "rule met"}

# input # strict comparison: is reported MIC < 0.5 µg/mL? input = `C=CCc1cc(Cc2cnc(N)nc2N)c2cccnc2c1OCCOC`
# output rule met

# input # strict comparison: is reported MIC < 0.5 µg/mL? input = `C=CCc1cc(Cc2cnc(N)nc2N)c2ccc(C)nc2c1OC`
# output rule met

# input # strict comparison: is reported MIC < 0.5 µg/mL? input = `COc1cc(Cc2cnc(N)nc2N)c2cccnc2c1OC`
# output rule met

# input # strict comparison: is reported MIC < 0.5 µg/mL? input = `C=CCc1cc(Cc2cnc(N)nc2N)c2cccnc2c1OC`
# output rule met

# input # strict comparison: is reported MIC < 0.5 µg/mL? input = `COc1cc(Cc2cnc(N)nc2N)c2c(c1OC)OC(C)=CC2`
# output rule met

# input # strict comparison: is reported MIC < 0.5 µg/mL? input = COc1cc(Cc2cnc(N)nc2N)c2c(c1OC)OC(C)CC2 (stereo not shown)
# output rule met

# input # strict comparison: is reported MIC < 0.5 µg/mL? input = `C=CCc1cc(Cc2cnc(N)nc2N)c2cccnc2c1O`
# output rule not met

# input # strict comparison: is reported MIC < 0.5 µg/mL? input = `COc1cc(Cc2cnc(N)nc2N)c2cccnc2c1O`
# output rule not met

# input # strict comparison: is reported MIC < 0.5 µg/mL? input = `CC=Cc1cc(Cc2cnc(N)nc2N)c2cccnc2c1OC`
# output rule met

# input # strict comparison: is reported MIC < 0.5 µg/mL? input = `CCCc1cc(Cc2cnc(N)nc2N)c2cccnc2c1OC`
# output rule met

# input # strict comparison: is reported MIC < 0.5 µg/mL? input = `C=CCc1cc(Cc2cnc(N)nc2N)c2c(c1OC)NCCC2`
# output rule met

# input # strict comparison: is reported MIC < 0.5 µg/mL? input = `COc1cc(Cc2cnc(N)nc2N)c2c(c1OC)OC(C)(C)C=C2`
# output rule met

# input # strict comparison: is reported MIC < 0.5 µg/mL? input = `Cc1cc(Cc2cnc(N)nc2N)c2ncccc2c1N`
# output rule not met

# input # strict comparison: is reported MIC < 0.5 µg/mL? input = `CSc1cc(Cc2cnc(N)nc2N)c2cccnc2c1N.Cl.Cl`
# output rule met
